- Measured On: Thromboxane-A synthase (Oryctolagus cuniculus)
- Test Description: Inhibition of platelet microsomal thromboxane A2 synthetase in rabbits
pIC50: −log10 of the molar value.

[
  {
    "Smiles Entry": "O=C(O)C1=Cc2sc(Cn3ccnc3)cc2CC1",
    "pIC50": 7.89
  }
]
